# credit: paper PMC7181660

Experiment: Pharmacokinetics and BBB penetration after single IP injection
Format: in vivo
Conditions: mouse, plasma; mice, single IP 10 mg/kg; read-out: half-life in plasma
REPORTED_PROPERTY: half-life
Put your answer as a value accompanied by its unit after it.

Reported half-life for `CN(/N=C\c1ccc(O)c(O)c1)c1nc(-c2ccccc2)cc(-c2ccccc2)n1` : what is it? 30 min

* * *

Experiment: Pharmacokinetics and BBB penetration after single IP injection
Assay type: in vivo
Details: mouse, brain; mice, single IP 10 mg/kg; read-out: half-life in the brain
REPORTED_PROPERTY: half-life (h)
Give just the numeric value; h need not be written.

Give its half-life value. Item: `CN(/N=C\c1ccc(O)c(O)c1)c1nc(-c2ccccc2)cc(-c2ccccc2)n1` 1.33

* * *

Assay: Pharmacokinetics and BBB penetration after single IP injection
Assay type: in vivo
Conditions: mouse, brain; mice, single IP 10 mg/kg; read-out: Cmax in the brain
REPORTED_PROPERTY: Cmax

Name the reported Cmax value associated with the compound `CN(/N=C\c1ccc(O)c(O)c1)c1nc(-c2ccccc2)cc(-c2ccccc2)n1` 57 ng/g

* * *

REPORTED_PROPERTY: IC50

Please provide the recorded IC50 for `O=C1Nc2ccc3ncsc3c2/C1=C/c1cnc[nH]1` , tested on panel of 391 kinases (Homo sapiens, UniProt Q8TDX7). 14.8 µM

* * *

REPORTED_PROPERTY: pIC50
# pIC50: negative log10 of molar concentration; output just the value

Please state recorded pIC50 (tested on panel of 391 kinases (Homo sapiens, UniProt Q15119)) of `O=C1Nc2ccc(I)cc2/C1=C/c1cc(Br)c(O)c(Br)c1` 5.26

* * *

Biological target: UniProtKB Q9NYL2
Sequence (Q9NYL2 whole entry): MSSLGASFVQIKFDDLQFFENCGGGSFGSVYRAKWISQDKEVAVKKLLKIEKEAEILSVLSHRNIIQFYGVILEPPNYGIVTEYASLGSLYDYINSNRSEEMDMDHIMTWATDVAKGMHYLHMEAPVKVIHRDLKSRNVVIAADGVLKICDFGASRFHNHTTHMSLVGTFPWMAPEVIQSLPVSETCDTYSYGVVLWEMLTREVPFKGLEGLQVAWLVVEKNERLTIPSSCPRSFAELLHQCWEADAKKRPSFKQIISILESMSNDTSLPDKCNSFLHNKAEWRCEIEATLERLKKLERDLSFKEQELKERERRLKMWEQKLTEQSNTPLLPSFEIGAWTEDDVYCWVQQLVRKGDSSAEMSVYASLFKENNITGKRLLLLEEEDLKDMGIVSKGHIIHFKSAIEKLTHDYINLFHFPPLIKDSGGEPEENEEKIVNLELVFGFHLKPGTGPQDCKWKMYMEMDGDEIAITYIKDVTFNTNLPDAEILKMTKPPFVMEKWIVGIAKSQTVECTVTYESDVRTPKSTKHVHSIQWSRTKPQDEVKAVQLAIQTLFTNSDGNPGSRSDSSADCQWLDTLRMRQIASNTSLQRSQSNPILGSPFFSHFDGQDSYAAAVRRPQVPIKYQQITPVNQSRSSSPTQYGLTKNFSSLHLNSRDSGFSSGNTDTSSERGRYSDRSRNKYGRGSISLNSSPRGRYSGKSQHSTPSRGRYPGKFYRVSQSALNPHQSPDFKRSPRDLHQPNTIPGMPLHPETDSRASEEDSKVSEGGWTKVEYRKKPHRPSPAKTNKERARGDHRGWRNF
Assay: biochemical
Type: biochemical
Conditions: ZAK/MLTK; ATP 1 µM; read-out: Control Compound IC50
REPORTED_PROPERTY: pIC50
When answering, recall that pIC50 equals minus log10 of the concentration in mol/L, and write that number alone.

Reported pIC50 for O=C1Nc2ccc(I)cc2/C1=C/c1cc(Br)c(O)c(Br)c1 [GW5074] : what is it? 5.87

* * *

Biological target: panel of 391 kinases (Homo sapiens, UniProt Q9BQI3)
Sequence (Q9BQI3 whole entry): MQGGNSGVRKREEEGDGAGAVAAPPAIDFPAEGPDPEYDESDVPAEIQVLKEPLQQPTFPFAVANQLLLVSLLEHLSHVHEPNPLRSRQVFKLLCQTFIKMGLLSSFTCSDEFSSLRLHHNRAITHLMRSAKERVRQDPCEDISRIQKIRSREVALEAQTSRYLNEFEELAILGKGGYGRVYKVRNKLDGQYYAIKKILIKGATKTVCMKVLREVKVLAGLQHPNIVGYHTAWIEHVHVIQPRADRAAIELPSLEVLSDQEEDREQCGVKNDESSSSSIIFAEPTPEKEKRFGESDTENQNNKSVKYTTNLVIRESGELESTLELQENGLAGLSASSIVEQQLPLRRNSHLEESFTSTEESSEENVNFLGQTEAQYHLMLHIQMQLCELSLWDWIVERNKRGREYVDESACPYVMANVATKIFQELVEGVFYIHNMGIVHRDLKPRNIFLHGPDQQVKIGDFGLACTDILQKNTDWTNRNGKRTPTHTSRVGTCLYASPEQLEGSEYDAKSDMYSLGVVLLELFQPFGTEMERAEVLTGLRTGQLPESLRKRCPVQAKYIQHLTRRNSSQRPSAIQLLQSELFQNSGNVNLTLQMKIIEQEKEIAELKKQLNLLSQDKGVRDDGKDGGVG
REPORTED_PROPERTY: IC50 (nM)
Supply the numeric figure in nM, leaving out any unit text.

Record request: IC50 value, item Cn1cc(-c2ccc3c(c2)CCN3C(=O)Cc2cccc(C(F)(F)F)c2)c2c(N)ncnc21 [GSK-2606414] 166

* * *

Target: panel of 391 kinases (Homo sapiens, UniProt Q9HC98)
Sequence (Q9HC98 whole entry): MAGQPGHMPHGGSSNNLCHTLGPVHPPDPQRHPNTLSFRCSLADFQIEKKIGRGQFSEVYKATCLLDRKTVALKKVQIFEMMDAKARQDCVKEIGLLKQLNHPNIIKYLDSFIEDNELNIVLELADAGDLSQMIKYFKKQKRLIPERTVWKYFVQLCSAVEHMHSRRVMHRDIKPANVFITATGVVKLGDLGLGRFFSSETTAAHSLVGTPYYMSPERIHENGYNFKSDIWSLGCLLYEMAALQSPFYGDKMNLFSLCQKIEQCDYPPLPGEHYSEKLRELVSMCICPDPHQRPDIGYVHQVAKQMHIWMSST
REPORTED_PROPERTY: pIC50
On this scale, pIC50 is minus log10 of a concentration expressed in M (mol/L).

Form: Entry = O=C1Nc2ccc3ncsc3c2/C1=C/c1cnc[nH]1 [PKR Inhibitor] | System = panel of 391 kinases (Homo sapiens, UniProt Q9HC98) | pIC50 = ____ 5.24

* * *

Target chain: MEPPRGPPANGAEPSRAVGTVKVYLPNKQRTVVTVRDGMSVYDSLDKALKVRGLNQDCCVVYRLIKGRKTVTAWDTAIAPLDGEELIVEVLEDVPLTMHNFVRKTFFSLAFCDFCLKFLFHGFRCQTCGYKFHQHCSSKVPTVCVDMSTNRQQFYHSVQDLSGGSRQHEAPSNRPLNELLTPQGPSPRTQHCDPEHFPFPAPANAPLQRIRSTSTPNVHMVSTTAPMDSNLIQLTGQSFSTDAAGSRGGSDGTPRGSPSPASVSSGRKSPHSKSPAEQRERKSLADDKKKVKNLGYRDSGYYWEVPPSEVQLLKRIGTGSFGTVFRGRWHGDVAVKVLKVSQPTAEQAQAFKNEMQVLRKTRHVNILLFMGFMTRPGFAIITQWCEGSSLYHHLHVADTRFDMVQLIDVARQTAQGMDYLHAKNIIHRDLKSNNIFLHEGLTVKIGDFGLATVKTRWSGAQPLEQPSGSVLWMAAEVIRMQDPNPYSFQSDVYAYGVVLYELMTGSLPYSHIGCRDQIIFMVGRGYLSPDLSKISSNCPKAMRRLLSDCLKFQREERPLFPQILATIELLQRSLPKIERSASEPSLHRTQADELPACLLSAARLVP
REPORTED_PROPERTY: pIC50
# pIC50: negative log10 of molar concentration; output just the value

May I ask what pIC50 has been recorded for `O=C1Nc2ccc(I)cc2/C1=C/c1cc(Br)c(O)c(Br)c1` ? 7.53

* * *

REPORTED_PROPERTY: IC50 (nM)
The response must be a number in nM with no trailing unit.

I'm curious: which IC50 was measured for O=C1Nc2ccc(I)cc2/C1=C/c1cc(Br)c(O)c(Br)c1 [GW5074] tested on panel of 391 kinases (Homo sapiens)? 1680

* * *

Assay: Pharmacokinetics and BBB penetration after single IP injection
Format: in vivo
Settings: mouse, brain; mice, single IP 10 mg/kg; read-out: AUC in the brain as % of that in the plasma
REPORTED_PROPERTY: Kp
The answer should be written as a number, with no unit following it.

Can you look up the measured Kp of CN(/N=C\c1ccc(O)c(O)c1)c1nc(-c2ccccc2)cc(-c2ccccc2)n1 [MK-28] for me? 0.22

* * *

Target: panel of 391 kinases (Homo sapiens)
Sequence (Q9NR20 1-520): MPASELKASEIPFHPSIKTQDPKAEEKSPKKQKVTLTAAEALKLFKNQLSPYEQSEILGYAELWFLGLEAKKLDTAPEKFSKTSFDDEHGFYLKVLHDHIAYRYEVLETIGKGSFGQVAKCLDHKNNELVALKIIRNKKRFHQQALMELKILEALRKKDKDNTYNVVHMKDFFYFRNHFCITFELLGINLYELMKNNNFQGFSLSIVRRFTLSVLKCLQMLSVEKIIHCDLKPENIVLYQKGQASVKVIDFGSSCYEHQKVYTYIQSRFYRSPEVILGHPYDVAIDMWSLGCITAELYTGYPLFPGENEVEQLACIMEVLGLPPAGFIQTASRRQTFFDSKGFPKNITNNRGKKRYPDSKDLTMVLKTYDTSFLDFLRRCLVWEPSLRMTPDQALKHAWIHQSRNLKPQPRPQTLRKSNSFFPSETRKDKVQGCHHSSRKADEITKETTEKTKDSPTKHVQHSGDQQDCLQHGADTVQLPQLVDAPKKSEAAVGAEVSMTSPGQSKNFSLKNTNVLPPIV
REPORTED_PROPERTY: pIC50
Notebook: values listed as pIC50 are -log10 of the concentration (mol/L).

Entry under review: `O=C1Nc2ccc(I)cc2/C1=C/c1cc(Br)c(O)c(Br)c1` . Reported pIC50? 5.94

* * *

Target: PERK (EIF2AK3) (Homo sapiens, UniProt Q9NZJ5)
Construct: GST
Sequence (Q9NZJ5 536-1116): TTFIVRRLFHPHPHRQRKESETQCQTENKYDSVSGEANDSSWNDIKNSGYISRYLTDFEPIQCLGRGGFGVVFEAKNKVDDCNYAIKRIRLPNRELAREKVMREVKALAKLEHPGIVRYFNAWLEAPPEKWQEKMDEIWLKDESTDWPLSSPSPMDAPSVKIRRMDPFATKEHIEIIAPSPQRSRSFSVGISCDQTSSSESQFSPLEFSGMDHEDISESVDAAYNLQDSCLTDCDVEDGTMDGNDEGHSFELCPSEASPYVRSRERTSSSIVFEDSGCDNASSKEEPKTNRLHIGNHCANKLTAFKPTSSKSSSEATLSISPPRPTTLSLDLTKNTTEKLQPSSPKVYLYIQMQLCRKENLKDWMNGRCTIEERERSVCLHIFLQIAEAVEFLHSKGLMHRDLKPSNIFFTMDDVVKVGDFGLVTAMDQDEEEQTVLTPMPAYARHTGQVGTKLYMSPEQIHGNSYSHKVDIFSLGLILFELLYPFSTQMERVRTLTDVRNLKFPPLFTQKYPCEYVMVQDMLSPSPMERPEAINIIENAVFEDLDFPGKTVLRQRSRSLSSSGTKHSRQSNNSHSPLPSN
Experiment: In vitro HotSpot kinase assay on isolated PERK
Settings: isolated PERK, 1 μM ATP; read-out: EC50 of PERK activation
REPORTED_PROPERTY: pEC50
Note on units: pEC50 is unitless, being -log10 of a concentration expressed in mol/L.

# lookup: pEC50 of CN(/N=C\c1ccc(O)c(O)c1)c1nc(-c2ccccc2)cc(-c2ccccc2)n1 [MK-28] 6.31
